In this section, each of the compounds is paired with its reported pIC50.
# MEASUREMENT_TARGET: Phospho-EGFR (Tyr1068) in H1975 cells (Homo sapiens, UniProt P00533, L858R/T790M)
# Sequence (P00533 25-1210 T790M/L858R): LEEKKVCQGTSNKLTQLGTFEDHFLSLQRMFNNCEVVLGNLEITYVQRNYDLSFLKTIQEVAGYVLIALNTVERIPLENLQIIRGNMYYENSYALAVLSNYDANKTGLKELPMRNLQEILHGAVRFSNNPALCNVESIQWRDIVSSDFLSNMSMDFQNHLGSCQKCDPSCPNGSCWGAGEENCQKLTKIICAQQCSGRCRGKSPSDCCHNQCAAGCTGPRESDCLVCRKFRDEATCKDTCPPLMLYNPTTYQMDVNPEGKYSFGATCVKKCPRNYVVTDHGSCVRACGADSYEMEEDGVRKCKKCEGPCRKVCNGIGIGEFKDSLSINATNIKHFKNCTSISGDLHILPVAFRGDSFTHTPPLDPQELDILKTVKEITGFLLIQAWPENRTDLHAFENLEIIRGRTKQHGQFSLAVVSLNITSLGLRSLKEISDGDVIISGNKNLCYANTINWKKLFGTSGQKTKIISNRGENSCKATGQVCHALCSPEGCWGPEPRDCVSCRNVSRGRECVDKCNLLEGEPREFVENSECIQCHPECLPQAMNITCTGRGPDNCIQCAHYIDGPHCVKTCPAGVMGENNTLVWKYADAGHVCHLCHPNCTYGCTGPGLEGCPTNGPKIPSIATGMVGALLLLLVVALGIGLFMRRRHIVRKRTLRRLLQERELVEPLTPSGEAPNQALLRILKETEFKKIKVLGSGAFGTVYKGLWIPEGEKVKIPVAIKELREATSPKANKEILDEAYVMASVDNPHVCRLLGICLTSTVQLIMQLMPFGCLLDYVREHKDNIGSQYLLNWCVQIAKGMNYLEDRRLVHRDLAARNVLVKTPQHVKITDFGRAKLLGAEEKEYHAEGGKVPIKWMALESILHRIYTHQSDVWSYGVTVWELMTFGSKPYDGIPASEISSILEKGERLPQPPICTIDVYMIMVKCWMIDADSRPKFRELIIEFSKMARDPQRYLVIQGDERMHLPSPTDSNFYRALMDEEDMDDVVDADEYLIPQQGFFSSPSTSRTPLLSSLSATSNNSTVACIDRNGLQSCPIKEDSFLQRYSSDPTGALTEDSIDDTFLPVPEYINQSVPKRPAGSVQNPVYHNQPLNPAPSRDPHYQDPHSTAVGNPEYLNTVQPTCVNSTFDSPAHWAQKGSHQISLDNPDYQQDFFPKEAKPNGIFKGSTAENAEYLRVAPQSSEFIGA
# ASSAY_PROCEDURE: HTRF pEGFR/total EGFR in H1975 cells
# STATED_CONDITIONS: ratio pEGFR/total EGFR, compound 3 hours
pIC50: −log10 of the molar value.

In the examples that follow, each entry is paired with its recorded pIC50.
C#Cc1cc(=O)n(C2CCCC2)c2nc(Nc3cccc4c3CN(C)C4)ncc12	< 5.52
C#Cc1cc(=O)n(C)c2nc(Nc3ccc(N4CCN(C)CC4)c(NC(C)=O)c3)ncc12	> 6.30
C#Cc1cc(=O)n(-c2ccccc2)c2nc(Nc3ccc4c(c3)CCNCC4)ncc12	> 6.30

Lab request: please report pIC50 under test system Phospho-EGFR (Tyr1068) in H1975 cells (Homo sapiens, UniProt P00533, L858R/T790M) for C#Cc1c(-c2cc(OC)ccc2Cl)c(=O)n(C)c2nc(Nc3ccc(N(C)CCN(C)C)cc3)ncc12 > 6.30
